# tgt: MMP-13 (Homo sapiens, UniProt P45452)
# Construct: made in house
# testProtocol: In-vitro fluorescence assay of MMP-13 activity
# Format: biochemical
# particulars: recombinant human catalytic domain of MMP-13; read-out: MMP-13 IC50
property: pIC50
In plain terms, pIC50 is the concentration in mol/L turned into minus its base-10 logarithm.

C=C(Cl)c1ccc2oc(C(=O)Nc3ccc(-c4ccc(S(=O)(=O)N[C@H](C(=O)O)C(C)C)cc4)cc3)c(C)c2c1OC [Example 122]; 6.65
CCc1ccc2oc(C(=O)Nc3ccc(-c4ccc(S(=O)(=O)N[C@H](C(=O)O)C(C)C)cc4)cc3)c(C)c2c1OC [Example 86]; 8.42

Consider the additional compound presented here.
Hello, please tell me recorded pIC50 for this one: Cc1c(COc2ccc(-c3ccc(S(=O)(=O)N[C@@H](C(=O)O)C(C)C)cc3)cc2)oc2ccc(Br)c(OC(C)C)c12 [Example 149]
8.10

====

# tgt: MMP-14 (Homo sapiens, UniProt P50281)
# Construct: 20 kDa; purchased Chemicon International, Inc. CC 1041
# testProtocol: In-vitro fluorescence assay of MMP-14 activity
# Assay type: biochemical
# particulars: recombinant human catalytic domain of MMP-14
property: pIC50
In plain terms, pIC50 is the concentration in mol/L turned into minus its base-10 logarithm.

Consider the reported pIC50 for these compounds:
COCCCc1cccc2oc(C(=O)Nc3ccc(-c4ccc(S(=O)(=O)N[C@H](C(=O)O)C(C)C)cc4)cc3)c(C)c12 [Example 30]; 4.58
Cc1c(C(=O)Nc2ccc(-c3ccc(S(=O)(=O)N[C@@H](C(=O)O)C(C)C)cc3)cc2)oc2ccccc12 [Example 74]; 7.54
CC(C)[C@@H](NS(=O)(=O)c1ccc(-c2ccc(CS(=O)(=O)c3cc4ccccc4o3)cc2)cc1)C(=O)O [Example 164]; 5.84
Cc1c(C(=O)Nc2ccc(-c3ccc(S(=O)(=O)N[C@H](C(=O)O)C(C)C)cc3)cc2)oc2cccc(-c3ccccc3)c12 [Example 109]; 5.15
CC(C)[C@H](C(=O)O)N(C)S(=O)(=O)c1ccc(-c2ccc(NC(=O)c3cc4ccccc4o3)cc2)cc1 [Example 77]; 5.15
CC(C)[C@H](NS(=O)(=O)c1ccc(-c2ccc(NC(=O)c3cc4ccccc4[nH]3)cc2)cc1)C(=O)O [Example 3]; 5.25
CC(C)[C@@H](NS(=O)(=O)c1ccc(-c2ccc(C[S+]([O-])c3cc4ccccc4o3)cc2)cc1)C(=O)O (some centres unmarked) [Example 165]; 5.67
COc1c(Cl)ccc2oc(C(=O)Nc3ccc(-c4ccc(S(=O)(=O)N[C@H](C(=O)O)C(C)C)cc4)cc3)c(C)c12 [Example 116]; 4.91

Hello, please tell me recorded pIC50 for this one: Cc1cc(C(=O)Nc2ccc(-c3ccc(S(=O)(=O)N[C@H](C(=O)O)C(C)C)cc3)cc2)nn1-c1ccccc1 [Example 168]
4.44

Hello, please tell me recorded pIC50 for this one: CC(C)[C@H](NS(=O)(=O)c1ccc(-c2ccc(NC(=O)c3cc4c(ccc5ccccc54)o3)cc2)cc1)C(=O)O [Example 153]
4.77

Hello, please tell me recorded pIC50 for this one: CC(C)[C@H](NS(=O)(=O)c1ccc(-c2ccc(NC(=O)c3cc4c(-c5ccccc5)nn(C)c4s3)cc2)cc1)C(=O)O [Example 167]
4.96

Hello, please tell me recorded pIC50 for this one: CC(C)[C@H](NS(=O)(=O)c1ccc(-c2ccc(NC(=O)c3csc(-c4ccncc4)n3)cc2)cc1)C(=O)O [Example 169]
4.40

Hello, please tell me recorded pIC50 for this one: Cc1c(C(=O)Nc2ccc(-c3ccc(S(=O)(=O)N[C@H](C(=O)O)C(C)C)cc3)cc2)oc2cccc(-c3cccnc3)c12 [Example 111]
5.14

Hello, please tell me recorded pIC50 for this one: COc1c(Br)ccc2oc(COc3ccc(-c4ccc(S(=O)(=O)N[C@@H](C(=O)O)C(C)C)cc4)cc3)c(C)c12 [Example 136]
5.30
